system: 439559-082-T-J2-PDC complex spheroid growth; experiment: Anticancer human tumor 439559-082-T-J2-PDC patient-derived colon adenocarcinoma cell line growth inhibition [Asc]; conditions: second compound 0.0949 µM; first compound 0.00316 µM; active compounds read low;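 further: spheroids exposed to agents for 7 days starting day 3 after seeding; percent of DMSO vehicle control viability with 100% = vehicle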
Readout Kind: viability, T/C (%)

- Molecule: "CNC(C)C(=O)NC1CN(S(=O)(=O)c2cccc(S(=O)(=O)N3CCC4CCC(C(=O)NC(c5ccccc5)c5ccccc5)N4C(=O)C(NC(=O)C(C)NC)C3)c2)CCC2CCC(C(=O)NC(c3ccccc3)c3ccccc3)N2C1=O (stereo unspecified) + CCN1C(C(=O)NC23CCC(C(=O)O)(CC2)CC3)C(c2cccc(Cl)c2F)C2(C(=O)Nc3cc(Cl)ccc32)C12CCCCC2"
  Measured Value: 109
- Molecule: "O=C(c1ccc(F)c(F)c1Nc1ccc(I)cc1F)N1CC(O)([C@@H]2CCCCN2)C1 + CCN1C(C(=O)NC23CCC(C(=O)O)(CC2)CC3)C(c2cccc(Cl)c2F)C2(C(=O)Nc3cc(Cl)ccc32)C12CCCCC2"
  Measured Value: 111
- Molecule: "Cn1ncnc1[C@H]1c2n[nH]c(=O)c3cc(F)cc(c23)N[C@@H]1c1ccc(F)cc1 + CCN1C(C(=O)NC23CCC(C(=O)O)(CC2)CC3)C(c2cccc(Cl)c2F)C2(C(=O)Nc3cc(Cl)ccc32)C12CCCCC2"
  Measured Value: 106
- Molecule: "COc1c(OCCCN2CCOCC2)ccc2c3n(c(=NC(=O)c4cnc(N)nc4)nc12)CCN3 + CCN1C(C(=O)NC23CCC(C(=O)O)(CC2)CC3)C(c2cccc(Cl)c2F)C2(C(=O)Nc3cc(Cl)ccc32)C12CCCCC2"
  Measured Value: 96.4
- Molecule: "NC1CCC(NC2CC2c2ccccc2)CC1 (stereo unspecified) + CCN1C(C(=O)NC23CCC(C(=O)O)(CC2)CC3)C(c2cccc(Cl)c2F)C2(C(=O)Nc3cc(Cl)ccc32)C12CCCCC2"
  Measured Value: 123
- Molecule: "CCN1CCN(Cc2ccc(Nc3ncc(F)c(-c4cc(F)c5nc(C)n(C(C)C)c5c4)n3)nc2)CC1 + CCN1C(C(=O)NC23CCC(C(=O)O)(CC2)CC3)C(c2cccc(Cl)c2F)C2(C(=O)Nc3cc(Cl)ccc32)C12CCCCC2"
  Measured Value: 104
